System: KM12
Assay: NCI tumour cell line growth inhibition, 48 h
The source made the active and inactive calls. Cut-off read from the data, not from the text of the source: active = GI50 up to about 1.1 µM and inactive = higher.
Catalogue of GI50 readings, one per entry.
READOUT_LABEL: GI50

COMPOUND | ENDPOINT_RESULT
CC(=O)O[C@H]1C(=O)[C@@]2(C)[C@H]([C@H](OC(=O)C3CCCCC3)[C@]3(O)C[C@H](OC(=O)[C@H](O)[C@@H](NC(=O)OC(C)(C)C)c4ccccc4)C(C)=C1C3(C)C)[C@]1(OC(C)=O)CO[C@@H]1C[C@@H]2O | 0.00731 µM (active)
COc1cc2c(cc1C)NC(=O)/C2=C\c1cccnc1 | 13.6 µM (inactive)
OCC1OC(c2cccc3cc(O)c(O)cc23)CC1O (centres undefined) | > 100 µM (inactive)
COC(=O)c1sc(=S)sc1SCc1cccc(CSc2sc(=S)sc2C(=O)OC)c1 | > 100 µM (inactive)
COC(=O)[C@@]12CC(C(C)C)[C@H]3CC(C(=O)C=C1OC)[C@H]32 (some centres undefined) | > 100 µM (inactive)
COc1ccc(C2=Nc3c(nc(SC)[nH]c3=O)NC(c3ccccc3)C2)cc1 (centres undefined) | 16.6 µM (inactive)
Cc1cc2c(cc1C)C(=O)/C(=N/Nc1ccc(F)cc1)CCO2 | > 100 µM (inactive)
N#Cc1cc(-c2nc3c(F)cccc3s2)ccc1N | 65.3 µM (inactive)
COC(=O)C1=C(O)c2cc(OC)c(OC)c(OC)c2C(c2ccc3c(c2)OCO3)[C@@H]1C(=O)OC (some centres undefined) | 2.94 µM (inactive)
C(=N\c1ccc(-c2nc3ccccc3[nH]2)cc1)/c1ccco1 | 48.6 µM (inactive)
CCC(C(=O)O)c1ccc(OCc2ccccc2)cc1 (centres undefined) | > 100 µM (inactive)
Cc1ccc(NC(Nc2ccc(C)cc2C)=C(/C=C(\Cl)[N+](=O)[O-])[N+](=O)[O-])c(C)c1 | 10.4 µM (inactive)
COC(=O)C1(N2CCOCC2)CCC([C@@H](c2ccccc2)C(C)[N+](=O)[O-])C1 (some centres undefined) | > 100 µM (inactive)
NC(CCC(=O)O)C(=O)N1CCN(c2nc(N3CCCC3)c3nc(Cl)c(NCc4ccccc4)nc3n2)CC1 (centres undefined) | 16.1 µM (inactive)
CCCc1cc(=O)oc2c3c(c4c(c12)OC(C)(C)CC4)O[C@H](C)[C@@H](C)[C@H]3O | 12.8 µM (inactive)
O=c1c2ccccc2oc2ccccc12.Oc1cccc2cccnc12 | 5.3 µM (inactive)
COc1cccc(CC2C(=O)N/C(=N\C(C)=O)N2C)c1OC(C)=O (centres undefined) | > 100 µM (inactive)
CC(=O)c1cccc(NC(=O)C(=O)C(C2OC(=O)c3ccccc32)[N+](=O)[O-])c1 (centres undefined) | > 100 µM (inactive)
COc1cc(/C=N/N=C(\N)NO)c([N+](=O)[O-])cc1OC | 44.4 µM (inactive)
CC(=O)Nc1n[n+]([O-])c2cc(C)ccc2[n+]1[O-] | 3.68 µM (inactive)
Cc1ccc(C(=O)N(C2CCCCC2)C2CCCCC2)cc1/N=N/N(C)C | 6.71 µM (inactive)
COc1ccc2c(c1)/c(=C/C#N)c1c3ccccc3[n+](C)n21 | 6.04 µM (inactive)
N/C(=N\n1c(=S)[nH]c2ccccc2c1=O)Nn1c(=S)[nH]c2ccccc2c1=O | 96.8 µM (inactive)
CO[C@H]1C[C@H](O[C@H]2CC[C@]3(C=O)[C@H]4CC[C@]5(C)[C@@H](C6=CC(=O)OC6)CC[C@]5(O)[C@@H]4CC[C@]3(O)C2)O[C@H](C)[C@H]1O | 0.402 µM (active)
NCCN1CC2CCC(CC2)C1 | > 10 µM (inactive)
N#CCC1COc2ccccc2O1 (centres undefined) | > 10 µM (inactive)
COc1ccc(C[C@@H]2OC3(C=CC(=O)C=C3)O[C@H]2Cc2ccc(OC)cc2)cc1 | 1.91 µM (inactive)
O=C(Nc1nc2ncn(CCNCCn3cnc4nc(NC(=O)c5ccccc5)[nH]c(=O)c43)c2c(=O)[nH]1)c1ccccc1 | > 100 µM (inactive)
C/C(=N\Nc1ccc([N+](=O)[O-])cc1[N+](=O)[O-])c1sc(-n2nc(-c3ccccc3)cc2-c2ccccc2)nc1C | 11.3 µM (inactive)
Nc1ccccc1-c1noc(=O)[nH]1 | > 100 µM (inactive)
CCOc1ccccc1NC(=O)C1=C(C)NC(C)=C(C(=O)Nc2ccccc2OCC)C1c1ccc([N+](=O)[O-])cc1 | 41 µM (inactive)
Nc1cc([N+](=O)[O-])ccc1C(=O)N1CCC[C@H]1CO | > 100 µM (inactive)
CCCCNC(=O)C1C(=O)N(CCCC)C(=O)/C1=N\N (centres undefined) | > 100 µM (inactive)
COC(=O)[C@@H]1CS(=O)(=O)C(C(C)C)N1C(C)=O (some centres undefined) | > 100 µM (inactive)
Oc1nc(S)nc(SCc2c(Cl)c(Cl)c(Cl)c(Cl)c2Cl)n1 | 89.9 µM (inactive)
CCOC(=O)C1=C(N)N2C(=N[C@H]3CCCC[C@@H]32)N=C1 | > 100 µM (inactive)
CC(C)(C)C1=C(Br)C(OC(=O)C(F)(F)F)(C(C)(C)C)OP1(=O)c1ccccc1 (centres undefined) | 63 µM (inactive)
C=CC(COC(=O)C(C)(C)OC(C)=O)c1ccc(OC(=O)C(C)C)c(OC)c1 (centres undefined) | 4.07 µM (inactive)
N#C[BH2-][n+]1ccc(C(=O)NNCc2ccccc2)cc1 | > 100 µM (inactive)
